TARGET_OR_TEST_SYSTEM: T1, HDMX-YFP fusion protein (p53-binding domain of human HDMX, residues 1-109, C-terminally fused to Yellow … (human, UniProt O15151 1-109))
T1 construct: range 1-109; Expressed in E. coli BL21(DE3) from pET22-HDMX-YFP-His; also called HMDX; HDM4; not shown: Yellow Fluorescent Protein (YFP); C-terminal His tag
T1 sequence (looked up): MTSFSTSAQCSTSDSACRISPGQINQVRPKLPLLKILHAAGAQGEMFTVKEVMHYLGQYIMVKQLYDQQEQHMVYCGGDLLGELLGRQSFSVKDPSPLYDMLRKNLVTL
ASSAY_NOTES: SPR inhibition assay: inhibitor added to soluble HDMX-YFP, binding to immobilized biotin-SGSG-p53(15-29) is inhibited
Bridges are numbered along the chain shown (N, C = ends). Where no end group is shown, it is not given here. [ ]: non-standard residue; d: D form. SP8 = 3-amino-N-(3-(aminooxy)propyl)-4-(mercaptomethyl)benzamide, macrocycle-forming linker reagent; pAcF = para-acetyl-L-phenylalanine, its ketone forms an oxime with the linker; Phe(4-Ac) = CC(=O)c1ccc(C[C@H](N)C(=O)O)cc1; SP6 = not defined here
VALUE_KIND: IC50 (µM)
Quick note: give the figure in µM, leave out the unit.

Reference set (2 entries):
binder="GTSFA[Phe(4-Ac)]YWNLLA (linker 6-C via SP6; reading uncertain; also: linker thiol capped with iodoacetamide) [p53 macrocyclic peptidomimetic P3 (i/i+6(CO)-linked, SP6-based linker)]" value_kind=IC50 test_result=4.1
binder="GTSFA[pAcF]YWNLLA (linker 6-C via SP8; also: linker thiol capped with iodoacetamide) [p53 macrocyclic peptidomimetic P4 (i/i+6(CO)-linked, SP8-based linker)]" value_kind=IC50 test_result=3.5

Next, consider the following binder.
Ac-GTSFAYYWNLLA-NH2 (also called acyclic counterpart of P3 and P4) [P2] has a reported IC50 of 7.5
